test: in vivo; conditions: male, Swiss albino, mouse, in vivo, iv
MEASURE: MTD

- CC(=O)O[C@H]1C(=O)[C@@]2(C)[C@H]([C@H](OC(=O)c3ccccc3)[C@]3(O)C[C@H](OC(=O)[C@H](O)[C@@H](NC(=O)c4ccccc4)c4ccccc4)C(C)=C1C3(C)C)[C@]1(OC(C)=O)CO[C@@H]1C[C@@H]2O [paclitaxel]: 10 mg/kg

###

molecular target: Matrigel; assay: Sequence-specific competition binding of phage clones against synthetic peptide equivalents; conditions: synthetic peptide vs cognate phage on Matrigel, n=3
Recorded measurements of IC50, one per entry
MEASURE: IC50 (nM)

• KIWKLPQ [Clone C-10, heptapeptide from phage display against collagen IV; phage clone and synthetic peptide equivalent] = 917
• KIFVWPY [Clone A-9, heptapeptide from phage display against collagen IV; phage clone and synthetic peptide equivalent] = 551
• KVWSLPQ [Clone A-8, heptapeptide from phage display against collagen IV; phage clone and synthetic peptide equivalent] = 1200
• KLWVLPK [Clone C-11, heptapeptide from phage display against collagen IV; phage clone and synthetic peptide equivalent] = 117

Reference source: patent US20110143993A1
